Target: N-terminal His-tagged TYK2 pseudokinase domain (Homo sapiens, UniProt P29597)
Construct: the N-terminal His-tagged TYK2 pseudokinase domain; His (N); purchased Pharmaron
Sequence (P29597 589-875 limits assumed): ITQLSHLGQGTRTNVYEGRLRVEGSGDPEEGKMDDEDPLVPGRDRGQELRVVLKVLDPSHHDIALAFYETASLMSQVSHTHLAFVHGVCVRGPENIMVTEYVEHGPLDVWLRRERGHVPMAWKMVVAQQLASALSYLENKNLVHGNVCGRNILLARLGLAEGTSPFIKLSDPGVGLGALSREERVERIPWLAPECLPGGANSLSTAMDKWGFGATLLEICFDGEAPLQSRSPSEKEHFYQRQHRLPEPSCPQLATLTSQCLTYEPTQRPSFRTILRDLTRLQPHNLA
Assay: TYK2 JH2 domain SPA binding assay
Conditions: displacement of H3 probe (20 nM), 30 min room temperature; class symbols
Quick reference: IC50 of the listed items.

{"molecule": "[2H]C([2H])([2H])Nc1cc(Nc2cccn([C@H]3CC[C@@H](OC([2H])([2H])[2H])CC3)c2=O)nn2c(C(=O)N[C@@H]3C[C@@H]3F)cnc12", "assayTarget": "N-terminal His-tagged TYK2 pseudokinase domain (Homo sapiens, UniProt P29597)", "IC50": "10 to 100 nM"}
{"molecule": "[2H]C([2H])([2H])Nc1cc(Nc2cccn(C3C[C@H]4CC[C@@H](C3)O4)c2=O)nn2c(C(=O)N[C@@H]3C[C@@H]3F)cnc12 (some centres unmarked)", "assayTarget": "N-terminal His-tagged TYK2 pseudokinase domain (Homo sapiens, UniProt P29597)", "IC50": "10 to 100 nM"}
{"molecule": "CNc1cc(Nc2cccn(C3CC(C)(OC)C3)c2=O)nn2c(C(=O)N[C@@H]3C[C@H]4CCO[C@H]43)cnc12 (single isomer, unassigned) [Compound 92a]", "assayTarget": "N-terminal His-tagged TYK2 pseudokinase domain (Homo sapiens, UniProt P29597)", "IC50": "10 to 100 nM"}
{"molecule": "CNc1cc(Nc2cccn([C@H]3CC[C@H](OC)CC3)c2=O)nn2c(C(=O)N[C@@H]3C[C@H]4CCO[C@H]43)cnc12", "assayTarget": "N-terminal His-tagged TYK2 pseudokinase domain (Homo sapiens, UniProt P29597)", "IC50": "< 10 nM"}
{"molecule": "[2H]C([2H])([2H])Nc1cc(Nc2cccn(C3CCCC4(COC4)C3)c2=O)nn2c(C(=O)N[C@@H]3C[C@H]4CCO[C@H]43)cnc12 (single isomer, unassigned) [Compound 68a]", "assayTarget": "N-terminal His-tagged TYK2 pseudokinase domain (Homo sapiens, UniProt P29597)", "IC50": "10 to 100 nM"}

----------
Target: N-terminal His-tagged TYK2 pseudokinase domain (Homo sapiens)
Construct: the N-terminal His-tagged TYK2 pseudokinase domain; His (N); purchased Pharmaron
Assay: TYK2 JH2 domain SPA binding assay
Conditions: displacement of H3 probe (20 nM), 30 min room temperature; class symbols

{"molecule": "CNc1cc(Nc2cccn(C3C[C@H]4CC[C@@H](C3)O4)c2=O)nn2c(C(=O)N[C@@H]3C[C@H]4CCO[C@H]43)cnc12 (stereo partly drawn) [Compound 13]", "IC50": "10 to 100 nM"}
{"molecule": "CNc1cc(Nc2cccn(-c3ccccn3)c2=O)nc2c(C(=O)NC(C)c3ncco3)cnn12 (single isomer, unassigned) [Compound 36b]", "IC50": "10 to 100 nM"}
{"molecule": "CNc1cc(Nc2cccn([C@H]3C[C@H](OC)C3)c2=O)nn2c(C(=O)N[C@@H]3C[C@@H]3F)cnc12 [Compound 99]", "IC50": "10 to 100 nM"}
{"molecule": "CNc1cc(Nc2cccc3c2OCCC3)nn2c(C(=O)NC(C)c3ncco3)cnc12 (single isomer, unassigned) [Compound 22b]", "IC50": "< 10 nM"}
{"molecule": "[2H]C([2H])([2H])Nc1cc(Nc2cccn(C3CC4(CCCO4)C3)c2=O)nn2c(C(=O)N[C@@H]3C[C@H]4CCO[C@H]43)cnc12 (single isomer, unassigned) [Compound 98b]", "IC50": "10 to 100 nM"}
{"molecule": "CNc1cc(Nc2cccn(-c3ccccn3)c2=O)nn2c(C(=O)NC3CCc4scnc43)cnc12 (stereo not drawn) [Compound 9]", "IC50": "< 10 nM"}
{"molecule": "[2H]C([2H])([2H])Nc1cc(Nc2cccn(C3CCCC4(COC4)C3)c2=O)nn2c(C(=O)N[C@@H]3C[C@@H]3F)cnc12 (single isomer, unassigned) [Compound 75a]", "IC50": "100 to 1000 nM"}
{"molecule": "[2H]C([2H])([2H])Nc1cc(Nc2cccn(C3CC4OCCC43)c2=O)nn2c(C(=O)N[C@@H]3C[C@H]4CCO[C@H]43)cnc12 (single isomer, unassigned) [Compound 94b]", "IC50": "10 to 100 nM"}
{"molecule": "CNc1cc(Nc2cccn([C@@H]3C[C@H]4CCO[C@H]43)c2=O)nn2c(C(=O)NC3CCC4CCOC43)cnc12 (single isomer, unassigned) [Compound 95a]", "IC50": "10 to 100 nM"}
{"molecule": "[2H]C([2H])([2H])OC1(C)CC(n2cccc(Nc3cc(NC)c4ncc(C(=O)N[C@@H]5C[C@H]6CCO[C@H]65)n4n3)c2=O)C1 (single isomer, unassigned) [Compound 93a]", "IC50": "10 to 100 nM"}
{"molecule": "CNc1cc(Nc2cccc(N3CCCC3=O)n2)nn2c(C(=O)NC3CCn4ccnc43)cnc12 (racemic) [Compound 29]", "IC50": "< 10 nM"}
{"molecule": "[2H]C([2H])([2H])n1ccc(-n2cccc(Nc3cc(NC)c4ncc(C(=O)N[C@@H]5C[C@@H]5F)n4n3)c2=O)n1 [Compound 58]", "IC50": "10 to 100 nM"}

----------
Target: N-terminal His-tagged TYK2 pseudokinase domain (Homo sapiens, UniProt P29597)
Construct: the N-terminal His-tagged TYK2 pseudokinase domain; His (N); purchased Pharmaron
Assay: TYK2 JH2 domain SPA binding assay
Settings: displacement of H3 probe (20 nM), 30 min room temperature; class symbols
quantityMeasured: IC50

{"compound": "[2H]C([2H])([2H])Nc1cc(Nc2cccn(C3CC4(CCOC4)C3)c2=O)nc2c(C(=O)N[C@@H]3C[C@@H]3F)cnn12 (single isomer, unassigned) [Compound 103b]", "quantityMeasured": "IC50", "experimentalValue": "100 to 1000 nM"}
{"compound": "CNc1cc(Nc2cccn([C@H]3C[C@H](OC)C3)c2=O)nn2c(C(=O)NC3CCC4CCOC43)cnc12 (single isomer, unassigned) [Compound 88a]", "quantityMeasured": "IC50", "experimentalValue": "10 to 100 nM"}
{"compound": "CNc1cc(Nc2cccc3c2OCCC3)nn2c(C(=O)NCc3ncco3)cnc12 [Compound 20]", "quantityMeasured": "IC50", "experimentalValue": "< 10 nM"}

----------
Quick reference: IC50 of the listed items.
Tested on: IL-23 induced STAT3 in HEK-Blue™ IL-23 cells
Assay: IL-23 induced STAT3 QUANTI-Blue reporter assay in HEK-Blue IL-23 cells
Type: cell-based
Conditions: HEK-Blue IL-23 cells, IL-23 0.1 ng/mL, SEAP levels; class symbols; read-out: IL23 reporter assay (IC50 nM)

{"molecule": "[2H]C([2H])([2H])Nc1cc(Nc2cccn(C3CCCC4(COC4)C3)c2=O)nn2c(C(=O)N[C@@H]3C[C@@H]3F)cnc12 (single isomer, unassigned) [Compound 75b]", "IC50": "10 to 100 nM"}
{"molecule": "CNc1cc(Nc2cccn(C3CC(C)(OC)C3)c2=O)nn2c(C(=O)N[C@@H]3C[C@H]4CCO[C@H]43)cnc12 (single isomer, unassigned) [Compound 92b]", "IC50": "10 to 100 nM"}
{"molecule": "[2H]C([2H])([2H])OC1(C)CC(n2cccc(Nc3cc(NC)c4ncc(C(=O)N[C@@H]5C[C@H]6CCO[C@H]65)n4n3)c2=O)C1 (single isomer, unassigned) [Compound 93b]", "IC50": "10 to 100 nM"}
{"molecule": "CNc1cc(Nc2cccn(-c3ccccn3)c2=O)nc2c(C(=O)NC(C)c3ncco3)cnn12 (single isomer, unassigned) [Compound 36a]", "IC50": "≥ 1000 nM"}
{"molecule": "[2H]C([2H])([2H])Nc1cc(Nc2cccn(C3CC4OCCC43)c2=O)nn2c(C(=O)N[C@@H]3C[C@@H]3F)cnc12 (single isomer, unassigned) [Compound 101b]", "IC50": "10 to 100 nM"}
{"molecule": "[2H]C([2H])([2H])Nc1cc(Nc2cccn(C3CC4OCCC43)c2=O)nn2c(C(=O)N[C@@H]3C[C@H]4CCO[C@H]43)cnc12 (single isomer, unassigned) [Compound 94b]", "IC50": "10 to 100 nM"}
{"molecule": "CNc1cc(Nc2cccn([C@@H]3C[C@H]4CCO[C@H]43)c2=O)nn2c(C(=O)NC3CCC4CCOC43)cnc12 (single isomer, unassigned) [Compound 95a]", "IC50": "< 10 nM"}
{"molecule": "CNc1cc(Nc2cccn(C3CC4CCOC43)c2=O)nn2c(C(=O)N[C@@H]3C[C@@H]3F)cnc12 (single isomer, unassigned) [Compound 105d]", "IC50": "< 10 nM"}
{"molecule": "CNc1cc(Nc2cccn([C@H]3C[C@H](OC)C3)c2=O)nn2c(C(=O)NC3CCC4CCOC43)cnc12 (single isomer, unassigned) [Compound 88b]", "IC50": "100 to 1000 nM"}
{"molecule": "CNc1cc(Nc2cccc3c2OCCC3)nc2c(C(=O)NC(C)c3ncco3)cnn12 (single isomer, unassigned) [Compound 23b]", "IC50": "10 to 100 nM"}
{"molecule": "[2H]C([2H])([2H])Nc1cc(Nc2cccn(C3CC4(CCOC4)C3)c2=O)nc2c(C(=O)N[C@@H]3C[C@@H]3F)cnn12 (single isomer, unassigned) [Compound 103b]", "IC50": "10 to 100 nM"}

Data origin: patent US20240335443A1
